target_entity: MNK2a (Homo sapiens (Human))
Sequence (Q9HBH9 whole entry): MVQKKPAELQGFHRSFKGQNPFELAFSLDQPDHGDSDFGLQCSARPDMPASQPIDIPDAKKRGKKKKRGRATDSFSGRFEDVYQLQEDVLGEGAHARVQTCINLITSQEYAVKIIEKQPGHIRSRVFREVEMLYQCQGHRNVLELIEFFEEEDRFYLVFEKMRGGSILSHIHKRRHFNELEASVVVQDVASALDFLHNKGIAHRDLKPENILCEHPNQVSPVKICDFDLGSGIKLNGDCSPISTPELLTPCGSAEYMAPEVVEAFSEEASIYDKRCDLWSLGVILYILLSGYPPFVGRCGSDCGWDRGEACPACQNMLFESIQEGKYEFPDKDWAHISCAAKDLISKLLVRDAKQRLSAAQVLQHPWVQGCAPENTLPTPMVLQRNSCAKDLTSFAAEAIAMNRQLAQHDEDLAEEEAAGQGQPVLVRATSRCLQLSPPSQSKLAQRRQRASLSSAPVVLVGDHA
measurement_notes: MNK2a in vitro kinase assay (Assay 2), ADP-Glo
Type: biochemical
stated_conditions: assay 2; read-out: MNK2 IC50
pIC50: −log10 of the molar value.
assay_readout: pIC50

CO[C@@H]1COC[C@@H]1Oc1cc(F)ccc1Nc1ncnc2cc(N=S(C)(C)=O)cc(F)c12 (racemic) [Example 2.57]	8.22
CS(=O)(=Nc1cc(F)c2c(Nc3ccc(F)cc3O[C@H]3COC[C@@H]3O)ncnc2c1)c1ccccc1 (stereo partly shown) [Example 2.86]	7.89
CS(=O)(=Nc1cc(F)c2c(Nc3ccc(F)cc3O[C@H]3COC[C@@H]3O)ncnc2c1)c1cccnc1 (stereo partly shown) [Example 2.69]	7.66
Cc1cc(N=[S@@](C)(=O)c2ccccc2)cc2ncnc(Nc3ccc(F)cc3O[C@@H]3COC[C@@H]3O)c12 [Example 2.64]	8.05

I: COc1cc(N=S(C)(=O)C(C)(C)C)cc2ncnc(Nc3ccc(F)cc3O[C@H]3COC[C@@H]3O)c12 (stereo partly shown) [Example 9.18]
II: CO[C@@H]1CN(CCF)C[C@H]1Oc1ncccc1Nc1ncnc2cc(N=S(C)(C)=O)cc(C)c12 [Example 5.3]
III: Cc1cc(N=S(C)(C)=O)cc2ncnc(Nc3ccc(F)cc3O[C@H]3CN(S(C)(=O)=O)C[C@@H]3O)c12 [Example 2.59]
### Prompt Ordering: ascending pIC50. # respond with the labels, arranged in the requested order
### Response II, I, III
(II: 6.96, I: 8.10, III: 8.40)

---

target_entity: MNK2a (Homo sapiens (Human))
measurement_notes: MNK2a in vitro kinase assay (Assay 2), ADP-Glo
Type: biochemical
stated_conditions: assay 2; read-out: MNK2 IC50
Source text: B. MNK2a In Vitro Kinase Assay (Assay 2)
pIC50: −log10 of the molar value.
assay_readout: pIC50

CO[C@@H]1CCC(Oc2cc(F)ccc2Nc2ncnc3cc(N=S4(=O)CCC4)cc(C)c23)CO1 (mixture of isomers) [Example 2.56]	8.70
CO[C@@H]1CNC[C@H]1Oc1cc(F)ccc1Nc1ncnc2cc(N=S3(=O)CCCC3)cc(C)c12 [Example 4.2]	8.10

1: Cc1cc(N=S2(=O)CCCC2)cc2ncnc(Nc3cccnc3O[C@@H]3CN(S(C)(=O)=O)C[C@H]3O)c12 [Example 2.22]
2: COc1cc(N=S2(=O)CCCC2)cc2ncnc(Nc3ccc(F)cc3O[C@H]3COC[C@@H]3O)c12 [Example 9.29]
3: CS(=O)(=Nc1cc(F)c2c(Nc3ccc(F)cc3O[C@@H]3COC[C@@H]3O)ncnc2c1)c1cccnc1 (mixture of isomers) [Example 2.89]
4: Cc1cc(N=S2(=O)CCCC2)cc2ncnc(Nc3cccnc3O[C@H]3CNC[C@@H]3O)c12 [Example 3.3]
5: CO[C@@H]1CN(CC(F)F)C[C@H]1Oc1cc(F)ccc1Nc1ncnc2cc(N=S3(=O)CCCC3)cc(C)c12 [Example 5.1]
### Prompt Order the records by pIC50, with each subsequent value no larger than the one before. # respond with the labels, arranged in the requested order
### Response 2, 1, 5, 4, 3

---

target_entity: MNK1a (Homo sapiens (Human), UniProt Q9BUB5)
Sequence (Q9BUB5 other isoform, or with tags, fused parts or gaps): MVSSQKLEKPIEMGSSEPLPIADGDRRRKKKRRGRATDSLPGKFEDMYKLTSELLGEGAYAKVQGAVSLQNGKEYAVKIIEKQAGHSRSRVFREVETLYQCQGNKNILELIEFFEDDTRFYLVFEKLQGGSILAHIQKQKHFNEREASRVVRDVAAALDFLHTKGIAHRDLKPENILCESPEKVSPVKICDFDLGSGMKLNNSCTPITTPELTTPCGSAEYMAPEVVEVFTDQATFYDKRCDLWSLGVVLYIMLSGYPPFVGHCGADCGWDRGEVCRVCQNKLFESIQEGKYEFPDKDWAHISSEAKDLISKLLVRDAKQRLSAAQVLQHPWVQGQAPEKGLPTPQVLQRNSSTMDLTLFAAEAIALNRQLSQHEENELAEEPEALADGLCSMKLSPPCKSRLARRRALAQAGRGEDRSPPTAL
measurement_notes: MNK1 in vitro kinase assay (Assay 3), Z'-LYTE
Assay type: biochemical
stated_conditions: compound concentration of 1 μM, read-out: MNK1 % INH
Source text: C. MNK1 In Vitro Kinase Assay (Assay 3) MNK1 Data can be obtained from the MNK1 Z′-LYTE® assay. The MNK1 Z′-LYTE® screening protocol and assay conditions are also described on www.invitrogen.com. The assay is described as follows: The Z′-LYTE® biochemical assay employs a fluorescence-based, coupled-enzyme format and is based on the differential sensitivity of phosphorylated and non-phosphorylated peptides to proteolytic cleavage. […] 9. Read on fluorescence plate reader and analyze the data […]
assay_readout: inhibition at 1 µM (%)

O=S1(=Nc2cc(Cl)c3c(Nc4ccc(Cl)nc4O[C@H]4COC[C@@H]4O)ncnc3c2)CCCC1	103
CS(C)(=O)=Nc1cc(Cl)c2c(Nc3ccc(F)cc3O[C@H]3COC[C@H]3O)ncnc2c1 (racemic)	95
CO[C@@H]1C=C[C@@H](Oc2cc(F)ccc2Nc2ncnc3cc(N=S(C)(C)=O)cc(C)c23)CO1 (racemic)	96

a: CO[C@@H]1CN(C(C)=O)C[C@H]1Oc1cc(F)ccc1Nc1ncnc2cc(N=S(C)(C)=O)cc(C)c12
b: O=S1(=Nc2cc(F)c3c(Nc4cccnc4O[C@H]4COC[C@H]4O)ncnc3c2)CCC1 (racemic)
### Prompt Rank a against b by their inhibition at 1 µM values and give the higher one. Lab log: write the label of the selected item as the result.
### Response b
